A collection of compounds and their measured inhibition at 1 µM
measurementTarget: dopaminergic D2 receptor (Homo sapiens, UniProt P14416)
Sequence (P14416 1-414 isoform P14416-2): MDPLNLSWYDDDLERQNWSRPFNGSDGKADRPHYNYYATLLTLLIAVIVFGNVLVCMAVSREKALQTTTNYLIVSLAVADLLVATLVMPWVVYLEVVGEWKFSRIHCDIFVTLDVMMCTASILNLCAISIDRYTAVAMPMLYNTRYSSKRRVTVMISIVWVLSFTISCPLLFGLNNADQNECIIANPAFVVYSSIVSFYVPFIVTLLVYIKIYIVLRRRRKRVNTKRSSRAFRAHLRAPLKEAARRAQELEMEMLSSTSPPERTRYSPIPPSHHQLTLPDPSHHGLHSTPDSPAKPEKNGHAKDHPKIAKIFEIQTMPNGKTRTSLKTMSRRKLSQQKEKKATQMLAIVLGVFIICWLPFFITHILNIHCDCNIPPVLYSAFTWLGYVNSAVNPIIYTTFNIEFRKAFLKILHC
testDetails: Binding assay D2S (h), [3H]methyl-spiperone, HEK-293 cells
Set-up: expressed in transfected cells; host or cells: HEK-293 cells
testContext: read-out: D2 [%]
Express it in %; write the number only.

For orientation, consider the following solved cases.
compound: O=S(=O)(NCCCCN1CCN(c2cccc3c2OCCO3)CC1)c1ccc2ccccc2c1 [Compound 386]
measValue: 70

compound: Cc1[nH]c2ccc(Cl)cc2c1C1=CCN(CCCCNS(=O)(=O)c2cccc(O)c2)CC1 [Compound 369]
measValue: 67

compound: O=S(=O)(NCCCCN1CCN(c2nsc3ccccc23)CC1)c1ccc(Cl)s1 [Compound 195]
measValue: 99

Okay, next one:
Lab note: measured inhibition at 1 µM of O=S(=O)(NCCCCN1CCC(c2noc3cc(F)ccc23)CC1)c1ccc2c(c1)OCO2 [Compound 320] was 100

* * *

A collection of molecules and their measured inhibition at 1 µM
measurementTarget: dopaminergic D3 receptor (Homo sapiens)
testDetails: Cellular functional assay, dopaminergic D3 receptor (agonism/antagonism)
Format: cell-based
testContext: CHO; read-out: D3-antag. [%]
Express it in %; write the number only.

compoundString: O=S(=O)(NCCCCN1CCN(c2nsc3ccccc23)CC1)c1cc2ccccc2s1
measurementTarget: dopaminergic D3 receptor (Homo sapiens)
inhibition at 1 µM (%): 84

Lab note: measured inhibition at 1 µM of O=S(=O)(NCCCCN1CCN(c2cccc3[nH]ccc23)CC1)c1cccc(Cl)c1 was 30

Lab note: measured inhibition at 1 µM of O=S(=O)(NCCCCN1CCN(c2nsc3ccccc23)CC1)c1ccc2cc(Cl)ccc2c1 was 45

Lab note: measured inhibition at 1 µM of O=S(=O)(NCCCCN1CCN(c2noc3ccccc23)CC1)c1ccc2ccccc2c1 was 92

Lab note: measured inhibition at 1 µM of O=S(=O)(NCCCN1CCC(c2noc3cc(F)ccc23)CC1)c1ccc(F)c(Cl)c1 was 114

Lab note: measured inhibition at 1 µM of N#Cc1cccc(S(=O)(=O)NCCCN2CCC(c3noc4cc(F)ccc34)CC2)c1 was 109

Lab note: measured inhibition at 1 µM of O=S(=O)(NCCCCN1CCC(c2noc3cc(F)ccc23)CC1)c1cc2ccccc2s1 was 97

Lab note: measured inhibition at 1 µM of O=S(=O)(NCCCCN1CCN(c2cccc3[nH]ccc23)CC1)c1cccc(F)c1 was -2

* * *

measurementTarget: serotoninergic 5-HT7 receptor (Homo sapiens)
Sequence (P34969 whole entry): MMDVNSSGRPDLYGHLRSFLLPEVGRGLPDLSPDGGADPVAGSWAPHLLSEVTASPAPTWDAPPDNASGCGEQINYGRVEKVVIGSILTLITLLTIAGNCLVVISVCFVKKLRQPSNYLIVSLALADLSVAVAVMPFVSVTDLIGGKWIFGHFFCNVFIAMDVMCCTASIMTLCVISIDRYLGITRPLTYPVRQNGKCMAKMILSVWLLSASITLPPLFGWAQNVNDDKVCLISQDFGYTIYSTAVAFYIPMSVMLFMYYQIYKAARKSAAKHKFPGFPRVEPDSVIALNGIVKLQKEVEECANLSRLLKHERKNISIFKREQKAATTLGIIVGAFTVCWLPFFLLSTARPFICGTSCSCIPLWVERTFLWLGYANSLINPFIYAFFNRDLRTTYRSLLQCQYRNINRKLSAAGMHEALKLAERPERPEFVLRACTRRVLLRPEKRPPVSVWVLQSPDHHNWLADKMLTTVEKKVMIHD
testDetails: Binding assay 5-HT7 (h), [3H]LSD, CHO cells
Set-up: expressed in transfected cells; host or cells: CHO cells
testContext: read-out: 5-HT7
observable: inhibition at 1 µM (%)
Express it in %; write the number only.

For orientation, consider the following solved cases.
molecule: O=S(=O)(NCCCCN1CCN(c2cccc3[nH]ccc23)CC1)c1cc2ccccc2s1 [Compound 33]
observable: inhibition at 1 µM
measValue: 99

molecule: O=S(=O)(NCCCCN1CCN(c2cccc3c2OCCO3)CC1)c1ccc(F)c(Cl)c1 [Compound 392]
observable: inhibition at 1 µM
measValue: 91

molecule: O=S(=O)(NCCCCN1CCN(c2nsc3ccccc23)CC1)c1ccc2c(c1)CCO2 [Compound 242]
observable: inhibition at 1 µM
measValue: 101

molecule: CC(C)(C)c1ccc(S(=O)(=O)NCCCN2CCC(c3noc4cc(F)ccc34)CC2)cc1 [Compound 333]
observable: inhibition at 1 µM
measValue: 92

molecule: Cc1[nH]c2ccc(Cl)cc2c1C1=CCN(CCCCNS(=O)(=O)c2cccc(F)c2)CC1 [Compound 139]
observable: inhibition at 1 µM
measValue: 56

Lab note: measured inhibition at 1 µM of O=c1[nH]c2ccc(S(=O)(=O)NCCCN3CCC(c4noc5cc(F)ccc45)CC3)cc2o1 [Compound 353] was 83

Lab note: measured inhibition at 1 µM of Cc1cccc(S(=O)(=O)NCCCCN2CCN(c3nsc4ccccc34)CC2)c1 [Compound 3] was 97

Lab note: measured inhibition at 1 µM of Cc1cccc(S(=O)(=O)NCCN2CCC(c3noc4cc(F)ccc34)CC2)c1 [Compound 25] was 98

* * *

measurementTarget: serotoninergic 5-HT2A receptor (Homo sapiens, UniProt P28223)
testDetails: Binding assay 5-HT2A (h), [3H]ketanserin, HEK-293 cells
Design: expressed in transfected cells; host or cells: HEK-293 cells
testContext: read-out: 5-HT2A
observable: inhibition at 1 µM (%)
Express it in %; write the number only.

For orientation, consider the following solved cases.
compoundString: Cc1c(S(=O)(=O)NCCCN2CCN(c3nsc4ccccc34)CC2)sc2ccc(F)cc12
inhibition at 1 µM (%): 101
//
compoundString: Cc1[nH]c2ccc(Cl)cc2c1C1=CCN(CCCNS(=O)(=O)c2cccc(Cl)c2)CC1
inhibition at 1 µM (%): 62
//
compoundString: O=S(=O)(NCCCCN1CCC(c2noc3cc(F)ccc23)CC1)c1ccc2c(c1)OCO2
inhibition at 1 µM (%): 101

Okay, next one:
// inhibition at 1 µM (serotoninergic 5-HT2A receptor (Homo sapiens, UniProt P28223)) for O=S(=O)(NCCCCN1CCC(c2noc3cc(F)ccc23)CC1)c1cc2ccccc2o1 = 102

* * *

measurementTarget: serotonine transporter (SERT) receptor (Homo sapiens)
Construct: expressed in transfected cells; host or cells: CHO cells
Sequence (P31645 whole entry): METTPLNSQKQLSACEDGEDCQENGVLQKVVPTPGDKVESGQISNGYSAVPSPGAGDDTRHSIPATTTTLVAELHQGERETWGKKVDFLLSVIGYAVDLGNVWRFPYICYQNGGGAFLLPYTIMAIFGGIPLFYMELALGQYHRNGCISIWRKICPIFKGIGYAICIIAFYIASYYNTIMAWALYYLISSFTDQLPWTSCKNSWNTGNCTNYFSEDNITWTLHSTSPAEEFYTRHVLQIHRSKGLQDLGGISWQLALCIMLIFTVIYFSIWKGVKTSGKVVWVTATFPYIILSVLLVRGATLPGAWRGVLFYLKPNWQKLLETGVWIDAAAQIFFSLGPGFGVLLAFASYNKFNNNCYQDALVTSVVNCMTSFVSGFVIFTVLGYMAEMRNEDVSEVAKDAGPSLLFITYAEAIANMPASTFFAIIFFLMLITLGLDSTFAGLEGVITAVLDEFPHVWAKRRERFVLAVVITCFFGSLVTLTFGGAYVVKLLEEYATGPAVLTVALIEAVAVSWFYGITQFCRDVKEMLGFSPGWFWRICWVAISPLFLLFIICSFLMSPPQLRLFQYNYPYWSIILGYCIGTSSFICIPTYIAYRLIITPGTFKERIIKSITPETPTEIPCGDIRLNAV
testDetails: Binding assay SERT (h), [3H]imipramine, CHO cells
testContext: read-out: SERT [%]
Response key: 1 means inhibition at 1 µM >= 20%; -1 means inhibition at 1 µM < 20%.

Below, 5 molecules whose answers are already recorded.
compoundString: O=S(=O)(NCCCCN1CCN(c2nsc3ccccc23)CC1)c1ccc2cc(Cl)ccc2c1
categoryLabel: 1

compoundString: Cn1ccc2cc(S(=O)(=O)NCCCN3CCC(c4noc5cc(F)ccc45)CC3)ccc21
categoryLabel: 1

compoundString: O=S(=O)(NCCCN1CCN(c2nsc3ccccc23)CC1)c1csc2ccccc12
categoryLabel: 1

compoundString: O=S(=O)(NCCCCN1CCN(c2cccc3c2OCCO3)CC1)c1cc2ccccc2s1
categoryLabel: -1

compoundString: O=S(=O)(NCCCN1CCN(c2nsc3ccccc23)CC1)c1cccc(C(F)(F)F)c1
categoryLabel: 1

Q: Does the reported inhibition at 1 µM for O=S(=O)(NCCN1CCN(c2nsc3ccccc23)CC1)c1cccc2ccccc12 fall at or above the 20% mark?
Ans: 1

Q: Does the reported inhibition at 1 µM for Cc1cccc(S(=O)(=O)NCCCN2CCN(c3cccc4c3OCCO4)CC2)c1 fall at or above the 20% mark?
Ans: -1

Q: Does the reported inhibition at 1 µM for O=S(=O)(NCCN1CCN(c2nsc3ccccc23)CC1)c1ccc2ccccc2c1 fall at or above the 20% mark?
Ans: 1

Q: Does the reported inhibition at 1 µM for Cc1c(S(=O)(=O)NCCCN2CCC(c3noc4cc(F)ccc34)CC2)sc2ccc(Cl)cc12 fall at or above the 20% mark?
Ans: -1

Q: Does the reported inhibition at 1 µM for O=S(=O)(NCCCN1CCC(c2noc3cc(F)ccc23)CC1)c1ccc2cc(Cl)ccc2c1 fall at or above the 20% mark?
Ans: 1

* * *

measurementTarget: muscarinic M3 receptor (Homo sapiens)
Construct: expressed in transfected cells; host or cells: CHO cells
Sequence (P20309 whole entry): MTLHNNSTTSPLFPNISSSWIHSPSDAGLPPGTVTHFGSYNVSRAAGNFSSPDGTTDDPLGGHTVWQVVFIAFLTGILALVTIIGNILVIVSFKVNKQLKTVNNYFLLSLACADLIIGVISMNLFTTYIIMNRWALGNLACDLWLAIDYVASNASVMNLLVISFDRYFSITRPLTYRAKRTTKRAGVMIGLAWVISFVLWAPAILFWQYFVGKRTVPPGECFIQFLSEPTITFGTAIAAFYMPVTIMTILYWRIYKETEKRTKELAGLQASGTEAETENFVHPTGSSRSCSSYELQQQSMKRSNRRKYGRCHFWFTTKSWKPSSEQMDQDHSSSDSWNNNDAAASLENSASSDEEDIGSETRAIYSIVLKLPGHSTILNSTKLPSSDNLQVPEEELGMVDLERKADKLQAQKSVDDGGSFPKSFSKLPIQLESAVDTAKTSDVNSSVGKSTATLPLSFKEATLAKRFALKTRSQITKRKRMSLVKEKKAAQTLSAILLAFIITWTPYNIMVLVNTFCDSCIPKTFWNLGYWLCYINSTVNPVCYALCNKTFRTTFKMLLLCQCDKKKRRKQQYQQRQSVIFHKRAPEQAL
testDetails: Binding assay M3 (h), [3H]4-DAMP, CHO cells
testContext: read-out: M3 [%]
A collection of compounds and their measured inhibition at 1 µM
Express it in %; write the number only.

For orientation, consider the following solved cases.
compound: O=S(=O)(NCCCCN1CCC(c2noc3cc(F)ccc23)CC1)c1ccc(F)c(F)c1 [Compound 295]
inhibition at 1 µM (%): 19
//
compound: O=S(=O)(NCCCN1CCN(c2nsc3ccccc23)CC1)c1ccc(Br)cc1 [Compound 252]
inhibition at 1 µM (%): 16
//
compound: O=S(=O)(NCCCCN1CCN(c2nsc3ccccc23)CC1)c1cccc2ccccc12 [Compound 1]
inhibition at 1 µM (%): 13

Okay, next one:
Lab note: measured inhibition at 1 µM of O=S(=O)(NCCCCN1CCN(c2cccc3[nH]ccc23)CC1)c1ccc(F)c(F)c1 [Compound 29] was 25

* * *

measurementTarget: dopaminergic D3 receptor (Homo sapiens, UniProt P35462)
Sequence (P35462 whole entry): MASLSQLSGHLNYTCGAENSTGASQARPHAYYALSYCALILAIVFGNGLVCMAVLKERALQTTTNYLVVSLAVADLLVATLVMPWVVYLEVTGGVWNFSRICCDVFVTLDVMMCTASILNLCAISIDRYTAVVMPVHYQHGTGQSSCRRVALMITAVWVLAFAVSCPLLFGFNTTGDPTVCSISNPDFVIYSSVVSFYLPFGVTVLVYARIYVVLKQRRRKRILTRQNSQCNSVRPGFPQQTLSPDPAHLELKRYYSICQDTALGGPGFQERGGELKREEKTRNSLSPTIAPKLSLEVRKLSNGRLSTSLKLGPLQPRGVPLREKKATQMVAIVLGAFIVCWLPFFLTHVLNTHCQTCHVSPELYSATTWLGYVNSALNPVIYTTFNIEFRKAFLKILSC
testDetails: Cellular functional assay, dopaminergic D3 receptor (agonism/antagonism)
Assay type: cell-based
testContext: CHO; read-out: D3-antag. [%]
observable: inhibition at 1 µM (%)
Express it in %; write the number only.

compoundString: O=S(=O)(NCCCCN1CCN(c2noc3ccccc23)CC1)c1cc2ccc(Cl)cc2s1
measurementTarget: dopaminergic D3 receptor (Homo sapiens, UniProt P35462)
unitsLabel: %
measValue: 72
--
compoundString: O=S(=O)(NCCCCN1CCN(c2cccc3[nH]ccc23)CC1)c1cc2ccccc2s1
measurementTarget: dopaminergic D3 receptor (Homo sapiens, UniProt P35462)
unitsLabel: %
measValue: -1
--
compoundString: Cc1c(S(=O)(=O)NCCCCN2CCC(c3noc4cc(F)ccc34)CC2)sc2ccc(F)cc12
measurementTarget: dopaminergic D3 receptor (Homo sapiens, UniProt P35462)
unitsLabel: %
measValue: 112

Lab note: measured inhibition at 1 µM of O=S(=O)(NCCCCN1CCN(c2cccc3[nH]ccc23)CC1)c1cc2ccc(Cl)cc2s1 was -3

Lab note: measured inhibition at 1 µM of O=S(=O)(NCCCCN1CCN(c2cccc3[nH]ccc23)CC1)c1ccc2ccccc2c1 was -8

Lab note: measured inhibition at 1 µM of O=S(=O)(NCCCCN1CCN(c2nsc3ccccc23)CC1)c1cc2ccc(Cl)cc2s1 was 78

Lab note: measured inhibition at 1 µM of O=c1[nH]c2cccc(N3CCN(CCCNS(=O)(=O)c4cccc5ccccc45)CC3)c2[nH]1 was 22

Lab note: measured inhibition at 1 µM of Cc1c(S(=O)(=O)NCCCCN2CCN(c3noc4ccccc34)CC2)sc2ccc(F)cc12 was 76

Provenance of the data: patent US8822517B2
